Molecular target: VIM-1 (Pseudomonas aeruginosa (strain ATCC 15692 / DSM 22644 / CIP 104116 / JCM 14847 / LMG 12228 / 1C / PRS 101 / PAO1), UniProt A0A0F7KYQ8)
Assay: Enzyme activity: determination of IC50, fluorescence assay with CCF2-FA substrate (VIM-1)
Format: biochemical
Settings: VIM-1 enzyme, CCF2-FA substrate; read-out: VIM-1 IC50
assayReadout: IC50 (nM)
Kindly answer with a numeric value in nM, unit omitted.

NS(=O)(=O)c1cccc(-c2ccc(N3CCC(O)C3)nc2)c1-c1nnn[nH]1 (stereo not shown) ... 120
CC(C)(O)C1CN(c2ccc(-c3cccc(S(N)(=O)=O)c3-c3nnn[nH]3)cn2)C1 ... 559
Nc1nc2cccc(-c3ccc(CC4CCNCC4)c(S(N)(=O)=O)c3-c3nn[nH]n3)c2[nH]1 ... 7.23
NS(=O)(=O)c1cccc(-c2cccc3sc(N[C@H]4CC[C@H](N)CC4)nc23)c1-c1nnn[nH]1 ... 4.46
Nc1nc2cccc(-c3ccc(C(F)(F)F)c(S(N)(=O)=O)c3-c3nnn[nH]3)c2[nH]1 ... 0.26

# input Please look up its IC50: N=C(NC1CCNC1)c1ccc(-c2ccc(C(F)(F)F)c(S(N)(=O)=O)c2-c2nn[nH]n2)cc1 (stereo not shown)
# output 36.3

# input Please look up its IC50: NCCC1CCC(N[C@H]2CC[C@H](c3ccc(C(F)(F)F)c(S(N)(=O)=O)c3-c3nnn[nH]3)CC2)CC1 (stereo partly shown) [Example 705]
# output 5.7
